- TARGET OR SYSTEM: T1, LPETG (SEQ ID NO: 4) substrate (not fully specified)
- T1 chain: LPETG
METRIC: Km LPETG (µM)
One number for each entry, in µM.

Check out these entries, answers already filled in.
P94S/D160N/D165A/K196T (protein) MQAKPQIPKDKSKVAGYIEIPDADIKEPVYPGPATSEQLNRGVSFAEENESLDDQNISIAGHTFIDRPNYQFTNLKAAKKGSMVYFKVGNETRKYKMTSIRNVKPTAVEVLDEQKGKDKQLTLITCDDYNEKTGVWETRKIFVATEVKLEHHHHHH
170
srtA P94S (protein) MQAKPQIPKDKSKVAGYIEIPDADIKEPVYPGPATSEQLNRGVSFAEENESLDDQNISIAGHTFIDRPNYQFTNLKAAKKGSMVYFKVGNETRKYKMTSIRDVKPTDVEVLDEQKGKDKQLTLITCDDYNEKTGVWEKRKIFVATEVKLEHHHHHH
2500
D160N/K190E/K196T (clone 4.2) (protein) MQAKPQIPKDKSKVAGYIEIPDADIKEPVYPGPATPEQLNRGVSFAEENESLDDQNISIAGHTFIDRPNYQFTNLKAAKKGSMVYFKVGNETRKYKMTSIRNVKPTDVEVLDEQKGKDKQLTLITCDDYNEETGVWETRKIFVATEVKLEHHHHHH
1600

Consider the record given below.
Q) // fetch Km LPETG given entry srtA K196T (protein) MQAKPQIPKDKSKVAGYIEIPDADIKEPVYPGPATPEQLNRGVSFAEENESLDDQNISIAGHTFIDRPNYQFTNLKAAKKGSMVYFKVGNETRKYKMTSIRDVKPTDVEVLDEQKGKDKQLTLITCDDYNEKTGVWETRKIFVATEVKLEHHHHHH
A) 3300

Where do the numbers come from? From patent US20150284477.
